TARGET_DESC: human TRPV4 (hTRPV4/CHO cells) (Homo sapiens, UniProt Q9HBA0)
Construct: expressed in transfected cells; host or cells: CHO-K1
Sequence (Q9HBA0 whole entry): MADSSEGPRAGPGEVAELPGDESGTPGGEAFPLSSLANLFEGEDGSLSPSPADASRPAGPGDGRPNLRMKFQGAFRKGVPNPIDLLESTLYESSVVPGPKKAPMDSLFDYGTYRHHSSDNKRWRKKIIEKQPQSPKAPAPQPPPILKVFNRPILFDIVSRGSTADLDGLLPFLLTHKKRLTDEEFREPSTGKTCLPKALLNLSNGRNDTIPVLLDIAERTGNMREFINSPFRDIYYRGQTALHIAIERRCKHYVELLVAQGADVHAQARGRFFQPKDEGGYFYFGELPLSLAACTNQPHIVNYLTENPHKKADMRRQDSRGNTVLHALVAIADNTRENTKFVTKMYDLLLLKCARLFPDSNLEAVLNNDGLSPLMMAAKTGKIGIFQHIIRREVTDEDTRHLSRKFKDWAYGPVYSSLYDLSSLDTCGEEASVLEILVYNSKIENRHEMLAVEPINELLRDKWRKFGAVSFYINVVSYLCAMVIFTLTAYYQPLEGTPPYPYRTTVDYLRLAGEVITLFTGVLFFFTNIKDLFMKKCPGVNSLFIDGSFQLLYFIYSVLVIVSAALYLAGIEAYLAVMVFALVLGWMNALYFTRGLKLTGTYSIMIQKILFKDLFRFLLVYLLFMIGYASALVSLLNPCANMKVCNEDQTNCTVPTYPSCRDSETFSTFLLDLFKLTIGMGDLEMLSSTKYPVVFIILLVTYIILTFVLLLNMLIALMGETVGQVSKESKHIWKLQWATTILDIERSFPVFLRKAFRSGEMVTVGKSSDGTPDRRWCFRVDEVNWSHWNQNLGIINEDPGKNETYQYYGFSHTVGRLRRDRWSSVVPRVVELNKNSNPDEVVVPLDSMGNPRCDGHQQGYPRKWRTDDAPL
TEST_DESCRIPTION: Test Example 1: TRPV4 inhibitory activity (IC50 value), 4α-PDD stimulation, Fluo4 calcium fluorescence (FLIPR TETRA)
Type: cell-based
MEASUREMENT_CONDITIONS: Test Example 1, 4α-PDD stimulation, read-out: Test 1 IC50
RESULT_TYPE: IC50

// known answers, use as guide
COMPOUND	IC50
Cc1nc(C)c(-c2csc(NC(=O)[C@@H]3C[C@@H](c4ccccc4)CN3C(=O)OC(C)(C)C)n2)s1	< 0.1 µM
Cc1nc(C)c(-c2nc(NC(=O)Cc3c(F)cccc3F)sc2-c2cccnc2)s1	1 to 8 µM
Cc1nc(C)c(-c2csc(NC(=O)CN3CCCC3c3ccccc3)n2)s1 (centres unmarked)	0.1 to 1 µM
Cc1nc(CO)sc1-c1csc(NC(=O)C2CN(C(=O)OC(C)(C)C(F)(F)F)C2)n1	< 0.1 µM
Cc1nc(C)c(-c2csc(NC(=O)C3(C)CN(c4ccc(C(F)(F)F)cc4)C3)n2)s1	< 0.1 µM
Cc1nc(C)c(-c2csc(NCCc3ccccc3)n2)s1	< 0.1 µM

Prompt: Using the record for Cc1nc(C(F)F)sc1-c1csc(NC(=O)Cc2ccc(S(=O)(=O)C(F)(F)F)cc2)n1 , state its measured IC50.
Completion: 0.1 to 1 µM

Prompt: Give IC50 for Cc1nc(C(C)(C)O)sc1-c1csc(NC(=O)Cc2c(F)cccc2F)n1
Completion: 0.1 to 1 µM

----------
TARGET_DESC: human TRPV4 (hTRPV4/CHO cells) (Homo sapiens)
Construct: expressed in transfected cells; host or cells: CHO-K1
TEST_DESCRIPTION: Test Example 1: TRPV4 inhibitory activity (IC50 value), 4α-PDD stimulation, Fluo4 calcium fluorescence (FLIPR TETRA)
Assay type: cell-based
MEASUREMENT_CONDITIONS: Test Example 1, 4α-PDD stimulation, read-out: Test 1 IC50
pIC50: −log10 of the molar value.
RESULT_TYPE: pIC50

COMPOUND	RESULT_TYPE	RESULT
Cc1nc(C)c(-c2csc(NC(=O)Cc3cccc(C#N)c3)n2)o1	pIC50	5.10 to 6.00
Cc1nc([C@H](C)O)sc1-c1csc(NC(=O)Cc2cc(Br)cc(C(=O)Nc3ccc(C(F)(F)F)cc3)c2)n1	pIC50	> 7.00
Cc1nc(C)c(-c2csc(NC(=O)Cc3ccc(S(=O)(=O)N(C)c4ccc(Cl)cc4)cc3)n2)s1	pIC50	> 7.00
Cc1nc(C)c(-c2csc(NC(=O)Cn3cc(CNc4ccccc4)nn3)n2)s1	pIC50	6.00 to 7.00

Prompt: Identify measured pIC50 corresponding to Cc1nc(C)c(-c2csc(NC(=O)Cc3cccc(N)c3)n2)s1
Completion: 6.00 to 7.00

Prompt: # return recorded pIC50 for input Cc1nc(CO)sc1-c1csc(NC(=O)C2CCC(F)(F)C2)n1 (centres unmarked)
Completion: 6.00 to 7.00

Prompt: Please look at this compound and report its pIC50: CON(C)C(=O)c1nc(C)c(-c2csc(NC(=O)Cc3c(F)cccc3F)n2)s1
Completion: 5.10 to 6.00

Prompt: Report pIC50, nothing else, for this compound: Cc1nc(CO)sc1-c1csc(NC(=O)[C@@H]2C[C@@H](c3ccccc3)CN2C(=O)OC(C)(C)C)n1
Completion: > 7.00
